target: human integrin αvβ5 (Homo sapiens, UniProt P06756+P18084); assay: Evaluation of integrin binding property (surface plasmon resonance, Biacore 3000, immobilized cyclic peptide); conditions: SPR, 25° C., HEPES buffer with 5 mM magnesium chloride, integrin 30-1,000 nM; read-out: Performance evaluation: Binding activity (dissociation constant between the cyclic peptide and human integrin αvβ5)
Sequence (P06756 31-1048): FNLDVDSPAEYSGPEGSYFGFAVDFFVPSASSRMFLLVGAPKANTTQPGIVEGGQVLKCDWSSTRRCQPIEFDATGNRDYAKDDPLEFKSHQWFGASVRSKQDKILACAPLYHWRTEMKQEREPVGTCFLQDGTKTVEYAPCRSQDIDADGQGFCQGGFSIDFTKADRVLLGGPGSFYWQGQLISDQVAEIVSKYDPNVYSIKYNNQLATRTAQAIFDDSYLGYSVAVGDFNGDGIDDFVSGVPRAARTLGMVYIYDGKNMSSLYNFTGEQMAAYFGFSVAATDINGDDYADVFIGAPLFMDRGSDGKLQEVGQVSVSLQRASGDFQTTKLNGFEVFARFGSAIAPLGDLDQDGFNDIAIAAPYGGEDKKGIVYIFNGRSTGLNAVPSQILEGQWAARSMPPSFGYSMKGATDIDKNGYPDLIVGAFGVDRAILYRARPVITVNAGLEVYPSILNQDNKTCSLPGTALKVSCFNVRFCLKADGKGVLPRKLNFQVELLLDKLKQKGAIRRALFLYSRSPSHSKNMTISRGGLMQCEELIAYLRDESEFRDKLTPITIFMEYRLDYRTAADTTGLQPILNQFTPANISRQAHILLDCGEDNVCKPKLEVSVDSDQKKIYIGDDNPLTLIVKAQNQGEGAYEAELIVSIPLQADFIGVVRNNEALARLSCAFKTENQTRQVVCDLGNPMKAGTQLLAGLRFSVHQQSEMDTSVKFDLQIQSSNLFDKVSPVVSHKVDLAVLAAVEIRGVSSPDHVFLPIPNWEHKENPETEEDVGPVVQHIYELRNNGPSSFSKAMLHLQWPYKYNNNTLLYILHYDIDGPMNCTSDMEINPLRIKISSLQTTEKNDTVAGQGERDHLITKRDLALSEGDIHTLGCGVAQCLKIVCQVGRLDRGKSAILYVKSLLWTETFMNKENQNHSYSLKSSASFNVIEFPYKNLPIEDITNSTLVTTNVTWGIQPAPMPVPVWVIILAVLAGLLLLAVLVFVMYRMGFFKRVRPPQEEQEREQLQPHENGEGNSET
Sequence (P18084 24-799): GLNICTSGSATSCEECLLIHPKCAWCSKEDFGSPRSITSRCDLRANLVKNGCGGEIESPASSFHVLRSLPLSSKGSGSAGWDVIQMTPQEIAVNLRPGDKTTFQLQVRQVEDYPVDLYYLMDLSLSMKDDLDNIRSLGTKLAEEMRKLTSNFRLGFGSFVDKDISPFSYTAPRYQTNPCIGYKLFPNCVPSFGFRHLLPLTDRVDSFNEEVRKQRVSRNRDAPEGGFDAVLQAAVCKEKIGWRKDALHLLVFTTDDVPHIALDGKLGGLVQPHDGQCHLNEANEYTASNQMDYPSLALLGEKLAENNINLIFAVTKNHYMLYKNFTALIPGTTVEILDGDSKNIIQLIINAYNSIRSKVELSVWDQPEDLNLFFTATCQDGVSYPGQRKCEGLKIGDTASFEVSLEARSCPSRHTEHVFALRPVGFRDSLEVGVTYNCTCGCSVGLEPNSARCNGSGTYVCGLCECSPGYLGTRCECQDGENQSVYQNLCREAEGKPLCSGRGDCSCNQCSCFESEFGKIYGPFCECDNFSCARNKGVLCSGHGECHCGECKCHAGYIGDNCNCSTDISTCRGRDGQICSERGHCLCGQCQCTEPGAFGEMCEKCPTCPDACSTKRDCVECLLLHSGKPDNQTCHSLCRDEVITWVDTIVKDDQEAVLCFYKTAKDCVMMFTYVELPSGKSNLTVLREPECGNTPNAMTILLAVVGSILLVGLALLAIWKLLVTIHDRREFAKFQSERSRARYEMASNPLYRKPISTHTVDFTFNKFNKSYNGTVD
pKd: −log10 of the molar value. Starred links: 1 amine or outer side, 2 acyl side, 3 side chain; linkers in the order of their positions; H or OH if unused. Positions of bridges follow the written chain, without caps; N, C: chain ends. Non-standard residues stand in square brackets, D forms with d. Residues, ends and D or L forms follow the SMILES beside them. hCys = N[C@@H](CCS)C(=O)O; Dab = NCC[C@H](N)C(=O)O; X2 = O=C(C[*:1])[*:2]
Some molecules, each annotated with its measured pKd.

MOLECULE: C[C@H](NC(=O)[C@@H]1CCNC(=O)CSCC[C@H](NC(=O)[C@H](C)NC(=O)[C@H](CCCCN)NC(=O)[C@H](CCCCN)NC(=O)[C@@H](N)CCCCN)C(=O)N[C@@H](CCC(=O)O)C(=O)N2CCC[C@H]2C(=O)N[C@@H](CCCNC(=N)N)C(=O)NCC(=O)N[C@@H](CC(=O)O)C(=O)N[C@@H](CC(N)=O)C(=O)N[C@@H](Cc2ccc(O)cc2)C(=O)N[C@@H](CCCNC(=N)N)C(=O)N1)C(=O)O [Cyclic peptide 41, KKKA-(Hcy)-EPRGDNYR(Dab(acetyl))A] (H-KKKA[hCys]EPRGDNYR[Dab]A-OH; linker 5-14 via X2)
TEST_TARGET: human integrin αvβ5 (Homo sapiens, UniProt P06756+P18084)
pKd: 7.00 to 7.30
//
MOLECULE: CC(C)[C@@H]1NC(=O)[C@@H](NC(=O)CNC(=O)[C@H](CCCCN)NC(=O)[C@H](CCCCN)NC(=O)[C@@H](N)CCCCN)CCSCC(=O)NCC[C@@H](C(=O)N[C@@H](C)C(=O)O)NC(=O)[C@H](C)NC(=O)[C@H](Cc2ccccc2)NC(=O)[C@H](CO)NC(=O)[C@H](CC(=O)O)NC(=O)CNC(=O)[C@H](CCCNC(=N)N)NC(=O)[C@@H]2CCCN2C1=O [Cyclic peptide 98, KKKG-(Hcy)-VPRGDSFA(Dab(acetyl))A] (H-KKKG[hCys]VPRGDSFA[Dab]A-OH; linker 5-14 via X2)
TEST_TARGET: human integrin αvβ5 (Homo sapiens, UniProt P06756+P18084)
pKd: > 7.30
//
MOLECULE: N=C(N)NCCC[C@@H]1NC(=O)[C@H](Cc2ccc(O)cc2)NC(=O)[C@H](CC(N)=O)NC(=O)[C@H](CC(=O)O)NC(=O)CNC(=O)[C@H](CCCNC(=N)N)NC(=O)[C@@H]2CCCN2C(=O)[C@H](CCC(=O)O)NC(=O)[C@@H](NC(=O)CNC(=O)[C@H](CCCCN)NC(=O)[C@H](CCCCN)NC(=O)[C@@H](N)CCCCN)CCSCC(=O)NCC[C@@H](C(=O)N[C@@H](CC(=O)O)C(=O)O)NC1=O [Cyclic peptide 37, KKKG-(Hcy)-EPRGDNYR(Dab(acetyl))D] (H-KKKG[hCys]EPRGDNYR[Dab]D-OH; linker 5-14 via X2)
TEST_TARGET: human integrin αvβ5 (Homo sapiens, UniProt P06756+P18084)
pKd: 7.00 to 7.30
//
MOLECULE: CC[C@H](C)[C@@H]1NC(=O)[C@@H](NC(=O)[C@H](C)NC(=O)[C@H](CCCCN)NC(=O)[C@H](CCCCN)NC(=O)[C@@H](N)CCCCN)CCSCC(=O)NCC[C@@H](C(=O)N[C@@H](C)C(=O)O)NC(=O)[C@H](CCCNC(=N)N)NC(=O)[C@H](Cc2ccccc2)NC(=O)[C@H]([C@@H](C)O)NC(=O)[C@H](CC(=O)O)NC(=O)CNC(=O)[C@H](CCCNC(=N)N)NC(=O)[C@H]([C@@H](C)O)NC1=O [Cyclic peptide 76, KKKA-(Hcy)-ITRGDTFR(Dab(acetyl))A] (H-KKKA[hCys]ITRGDTFR[Dab]A-OH; linker 5-14 via X2)
TEST_TARGET: human integrin αvβ5 (Homo sapiens, UniProt P06756+P18084)
pKd: 7.00 to 7.30

====

molecular target: human integrin αvβ5 (Homo sapiens, UniProt P06756+P18084); experiment: Evaluation of integrin binding property (surface plasmon resonance, Biacore 3000, immobilized cyclic peptide); conditions: SPR, 25° C., HEPES buffer with 5 mM magnesium chloride, integrin 30-1,000 nM; read-out: Performance evaluation: Binding activity (dissociation constant between the cyclic peptide and human integrin αvβ5)
pKd: −log10 of the molar value. Starred links: 1 amine or outer side, 2 acyl side, 3 side chain; linkers in the order of their positions; H or OH if unused. Positions of bridges follow the written chain, without caps; N, C: chain ends. Non-standard residues stand in square brackets, D forms with d. Residues, ends and D or L forms follow the SMILES beside them. hCys = N[C@@H](CCS)C(=O)O; Dab = NCC[C@H](N)C(=O)O; X2 = O=C(C[*:1])[*:2]
Some molecules, each annotated with its measured pKd.
RECORDED_ENDPOINT: pKd

MOLECULE: CC[C@H](C)[C@@H]1NC(=O)[C@@H](NC(=O)CNC(=O)[C@H](CCCCN)NC(=O)[C@H](CCCCN)NC(=O)[C@@H](N)CCCCN)CCSCC(=O)NCC[C@@H](C(=O)O)NC(=O)[C@H](CCCNC(=N)N)NC(=O)[C@H](Cc2ccccc2)NC(=O)[C@H](CC(N)=O)NC(=O)[C@H](CC(=O)O)NC(=O)CNC(=O)[C@H](CCCNC(=N)N)NC(=O)[C@@H]2CCCN2C1=O [Cyclic peptide 7, KKKG-(Hcy)-IPRGDNFR(Dab(acetyl))] (H-KKKG[hCys]IPRGDNFR[Dab]-OH; linker 5-14 via X2)
TEST_TARGET: human integrin αvβ5 (Homo sapiens, UniProt P06756+P18084)
RECORDED_ENDPOINT: pKd
MEASUREMENT: > 7.30

MOLECULE: CC(C)[C@@H]1NC(=O)[C@@H](NC(=O)[C@H](CCCCN)NC(=O)[C@H](CCCCN)NC(=O)[C@@H](N)CCCCN)CCSCC(=O)NCC[C@@H](C(=O)O)NC(=O)[C@H](Cc2ccccc2)NC(=O)[C@H]([C@@H](C)O)NC(=O)[C@H](CC(=O)O)NC(=O)CNC(=O)[C@H](CCCNC(=N)N)NC(=O)[C@@H]2CCCN2C1=O [Cyclic peptide 64, KKK-(Hcy)-VPRGDTF(Dab(acetyl))] (H-KKK[hCys]VPRGDTF[Dab]-OH; linker 4-12 via X2)
TEST_TARGET: human integrin αvβ5 (Homo sapiens, UniProt P06756+P18084)
RECORDED_ENDPOINT: pKd
MEASUREMENT: > 7.30

====

biological target: human integrin αvβ5 (Homo sapiens, UniProt P06756+P18084); test: Evaluation of integrin binding property (surface plasmon resonance, Biacore 3000, immobilized cyclic peptide); details: SPR, 25° C., HEPES buffer with 5 mM magnesium chloride, integrin 30-1,000 nM; read-out: Performance evaluation: Binding activity (dissociation constant between the cyclic peptide and human integrin αvβ5)
pKd: −log10 of the molar value. Starred links: 1 amine or outer side, 2 acyl side, 3 side chain; linkers in the order of their positions; H or OH if unused. Positions of bridges follow the written chain, without caps; N, C: chain ends. Non-standard residues stand in square brackets, D forms with d. Residues, ends and D or L forms follow the SMILES beside them. hCys = N[C@@H](CCS)C(=O)O; Dab = NCC[C@H](N)C(=O)O; X2 = O=C(C[*:1])[*:2]
RECORDED_ENDPOINT: pKd

MOLECULE: C[C@H](NC(=O)[C@@H]1CCNC(=O)CSCC[C@H](NC(=O)CNC(=O)[C@H](CCCCN)NC(=O)[C@H](CCCCN)NC(=O)[C@@H](N)CCCCN)C(=O)N[C@@H](CCC(=O)O)C(=O)N2CCC[C@H]2C(=O)N[C@@H](CCCNC(=N)N)C(=O)NCC(=O)N[C@@H](CC(=O)O)C(=O)N[C@@H]([C@@H](C)O)C(=O)N[C@@H](Cc2ccccc2)C(=O)N[C@@H](CCCNC(=N)N)C(=O)N1)C(=O)O [Cyclic peptide 69, KKKG-(Hcy)-EPRGDTFR(Dab(acetyl))A] (H-KKKG[hCys]EPRGDTFR[Dab]A-OH; linker 5-14 via X2)
MEASUREMENT: > 7.30
//
MOLECULE: CC[C@H](C)[C@@H]1NC(=O)[C@@H](NC(=O)CNC(=O)[C@H](CCCCN)NC(=O)[C@H](CCCCN)NC(=O)[C@@H](N)CCCCN)CCSCC(=O)NCC[C@@H](C(=O)NCC(=O)O)NC(=O)[C@H](C)NC(=O)[C@H](Cc2ccccc2)NC(=O)[C@H]([C@@H](C)O)NC(=O)[C@H](CC(=O)O)NC(=O)CNC(=O)[C@H](CCCNC(=N)N)NC(=O)[C@@H]2CCCN2C1=O [Cyclic peptide 84, KKKG-(Hcy)-IPRGDTFA(Dab(acetyl))G] (H-KKKG[hCys]IPRGDTFA[Dab]G-OH; linker 5-14 via X2)
MEASUREMENT: > 7.30
